# Measurement Conditions: cynomolgus monkey, in vivo, iv, 1 mg/kg, Cmax, macaque, 1 mg/kg IV infusion, Mean
No end group written: not given here.
Observable: Cmax (ng/mL)

[[record]]
substance = "RRWVRRVRRVWRRVVRVVRRWVRR-NH2 [SEQ ID NO: 1]"
observable = "Cmax"
unit_abbrev = "ng/mL"
reported_value = 1710


###

# Measurement Conditions: cynomolgus monkey, in vivo, iv, 3 mg/kg, Cmax, macaque, 3 mg/kg IV infusion, Mean
No end group written: not given here.
Observable: Cmax

[[record]]
substance = "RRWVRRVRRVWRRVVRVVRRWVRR-NH2 [SEQ ID NO: 1]"
reported_value = "10300 ng/mL"


###

# Measurement Conditions: mouse, in vivo, iv, 15 mg/kg
No end group written: not given here.
Observable: clearance (mL/min/kg)

[[record]]
substance = "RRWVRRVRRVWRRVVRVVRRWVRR-NH2 [SEQ ID NO: 1]"
observable = "clearance"
unit_abbrev = "mL/min/kg"
reported_value = 4.65


###

# Measurement Conditions: mouse, in vivo, iv, 15 mg/kg
No end group written: not given here.
Observable: half-life (h)

[[record]]
substance = "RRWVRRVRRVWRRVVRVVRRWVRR-NH2 [SEQ ID NO: 1]"
reported_value = 7.45


###

# Measurement Conditions: cynomolgus monkey, in vivo, iv, 1 mg/kg, CL, macaque, 1 mg/kg IV infusion, Mean
No end group written: not given here.
Observable: clearance (mL/min/kg)

[[record]]
substance = "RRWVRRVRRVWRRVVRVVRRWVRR-NH2 [SEQ ID NO: 1]"
observable = "clearance"
unit_abbrev = "mL/min/kg"
reported_value = 18.5


###

# Measurement Conditions: cynomolgus monkey, in vivo, iv, 10 mg/kg, CL, macaque, 10 mg/kg IV infusion, Mean
# From the text: Animals will be obtained from the Test Facility's colony of adult male cynomolgous monkeys (Macaca fascicularis) of Chinese origin. Animals will be weighed prior to dosing. […] All animals will be observed at dosing and each scheduled collection. All abnormalities will be recorded. […] Administered doses will be determined gravimetrically. Prior to extraction, a known concentration of a mass-adjusted internal standard (IS) will be added to assess recovery and allow for quantitation. […]
No end group written: not given here.
Observable: clearance (mL/min/kg)

[[record]]
substance = "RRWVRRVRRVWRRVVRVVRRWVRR-NH2 [SEQ ID NO: 1]"
reported_value = 6.32


###

# Measurement Conditions: mouse, in vivo, iv, 3 mg/kg, Vz, male CD-1 mice, 3 mg/kg IV
No end group written: not given here.
Observable: Vd

[[record]]
substance = "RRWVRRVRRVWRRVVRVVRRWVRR-NH2 [SEQ ID NO: 1]"
observable = "Vd"
reported_value = "~3 L/kg"


These data points were gathered from patent US20200071361A1.
